- Procedure Text: Pharmacokinetic study in rat
- Type: in vivo, Male SD rats
- Cond: male, SD, plasma, 10 mg/kg; Rat PK (PO) 10 mpk
Reported Endpoint: bioavailability (%)

CC(=O)N1CCC(Nc2ccc3c(c2)C(=O)N(C[C@H](O)CN2CCc4ccccc4C2)CC3)CC1 [Compound 24a]
62

(a) CC(=O)N1CCC(Nc2cc(C(=O)NC[C@H](O)CN3CCc4ccccc4C3)ncn2)CC1 [Compound C3, reference compound]
(b) CC(=O)N1CCC(Nc2ccc3c(c2)C(=O)N(C[C@H](O)CN2CCc4ccccc4C2)CCO3)CC1 [Compound 52a]
Task item: Lab note: check whether a or b has the lower measured bioavailability. State the label of the item chosen.
Reply: a

---

- Measured On: Human recombinant PRMT5 in complex with human recombinant MEP50 (Homo sapiens (Human), UniProt O14744)
- Sequence (O14744 whole entry): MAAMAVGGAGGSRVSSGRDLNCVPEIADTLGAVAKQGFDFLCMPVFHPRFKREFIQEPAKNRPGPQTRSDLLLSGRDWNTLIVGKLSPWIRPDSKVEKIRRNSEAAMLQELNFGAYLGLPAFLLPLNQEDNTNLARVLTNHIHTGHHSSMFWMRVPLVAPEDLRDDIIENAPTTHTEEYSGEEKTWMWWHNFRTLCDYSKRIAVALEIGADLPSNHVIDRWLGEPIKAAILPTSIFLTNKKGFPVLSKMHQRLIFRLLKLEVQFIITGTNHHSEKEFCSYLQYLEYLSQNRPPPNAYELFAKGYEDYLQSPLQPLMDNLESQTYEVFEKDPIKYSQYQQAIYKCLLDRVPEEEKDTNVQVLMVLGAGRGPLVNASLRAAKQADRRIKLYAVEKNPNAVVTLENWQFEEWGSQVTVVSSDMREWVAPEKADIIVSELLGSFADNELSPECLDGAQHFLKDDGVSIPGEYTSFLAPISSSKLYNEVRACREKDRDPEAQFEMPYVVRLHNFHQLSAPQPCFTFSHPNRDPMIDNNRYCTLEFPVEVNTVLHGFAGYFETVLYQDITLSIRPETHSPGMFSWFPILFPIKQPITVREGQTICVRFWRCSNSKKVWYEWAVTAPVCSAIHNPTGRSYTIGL
- Sequence (Q9BQA1 whole entry partner): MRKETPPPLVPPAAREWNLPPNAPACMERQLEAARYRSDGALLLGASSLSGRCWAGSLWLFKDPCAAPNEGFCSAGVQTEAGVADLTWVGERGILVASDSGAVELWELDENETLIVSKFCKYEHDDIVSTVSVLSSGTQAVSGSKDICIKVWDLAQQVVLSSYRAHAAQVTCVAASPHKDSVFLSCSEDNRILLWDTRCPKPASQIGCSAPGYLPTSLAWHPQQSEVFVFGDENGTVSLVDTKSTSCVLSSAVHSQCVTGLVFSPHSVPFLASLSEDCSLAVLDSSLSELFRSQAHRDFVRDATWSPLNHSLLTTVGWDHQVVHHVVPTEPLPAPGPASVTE
- Procedure Text: PRMT5/MEP50 AlphaLISA enzyme inhibitory assay
- Type: biochemical
- Cond: PRMT5/MEP50 25 nM, SAM 10 μM, Biotin-H4 peptide 30 nM
Reported Endpoint: IC50 (nM)

Answered cases to consult:
Cn1cc(Nc2ccc3c(c2)C(=O)N(C[C@@H](O)CN2CCc4ccccc4C2)CCO3)cn1 [Compound 29b]
126
O=C1c2cc(N[C@H]3CCOC3)ccc2CCN1C[C@@H](O)CN1CCc2ccccc2C1
1010
O=C1c2cc(Nc3ccnnc3)cnc2OCCN1CC(O)CN1CCc2ccccc2C1 (centres unmarked)
56.3
O=c1c2cc(Nc3ccnnc3)ccc2cnn1CC(O)CN1CCc2ccccc2C1 (centres unmarked)
22.4

(P) O=C1c2cc(N[C@@H]3CCOC3)ccc2CCN1C[C@@H](O)CN1CCc2ccccc2C1
(Q) CC(=O)N1CCC(Nc2ccc3c(c2)C(=O)N(C[C@@H](O)CN2CCc4ccccc4C2)CC3)CC1 [Compound 24b]
(R) O=C1c2cc(Nc3ccnnc3)cc(F)c2OCCN1CC(O)CN1CCc2ccccc2C1 (centres unmarked)
Task item: Ordering criterion: IC50; begin with the maximum. Put the labels in the order asked and list them.
Reply: P, Q, R

---

- Procedure Text: Pharmacokinetic study in rat
- Type: in vivo, Male SD rats
- Cond: male, SD, plasma, 10 mg/kg; Rat PK (PO) 10 mpk; read-out: T½ (converted)
Reported Endpoint: half-life (h)

CC(=O)N1CCC(Nc2ccc3c(c2)C(=O)N(C[C@H](O)CN2CCc4ccccc4C2)CCO3)CC1 [Compound 52a]
3.02

(P) CC(=O)N1CCC(Nc2ccc3c(c2)C(=O)N(C[C@H](O)CN2CCc4ccccc4C2)CC3)CC1 [Compound 24a]
(Q) CC(=O)N1CCC(Nc2cc(C(=O)NC[C@H](O)CN3CCc4ccccc4C3)ncn2)CC1 [Compound C3, reference compound]
Task item: Short answer wanted: higher half-life, P or Q ? Your answer should be the label attached to the chosen record.
Reply: P

---

- Procedure Text: Pharmacokinetic study in mouse
- Assay type: in vivo, Male CD-1 mice
- Cond: male, CD-1, plasma, 10 mg/kg; Mouse PK (PO) 10 mpk
- Method: Male CD-1 mice (16-24 g; 6-8 weeks; purchased from Shanghai SLAC laboratory animal CO. LTD; n=18, with 3 per time point) were treated with a single dose of compounds being tested at 2 mg/kg by intravenous tail-vein injection and 10 mg/kg by oral gavage administration, with both doses formulated in 20% N,N-dimethylacetamide in water. Animals upon PO administration were fasted overnight and fed 4 hours after dosing. Animals upon IV administration were free access to food and water. […]
Reported Endpoint: Cmax (ng/mL)

CC(=O)N1CCC(Nc2ccc3c(c2)C(=O)N(C[C@H](O)CN2CCc4ccccc4C2)CC3)CC1 [Compound 24a]
3580

(I) CC(=O)N1CCC(Nc2cc(C(=O)NC[C@H](O)CN3CCc4ccccc4C3)ncn2)CC1 [Compound C3, reference compound]
(II) CC(=O)N1CCC(Nc2ccc3c(c2)C(=O)N(C[C@H](O)CN2CCc4ccccc4C2)CCO3)CC1 [Compound 52a]
Task item: Sorting ascending by Cmax, which comes first: I or II ? Give the label under which the chosen entry appears.
Reply: I

---

- Tested on: MDA-MB-468
- Procedure Text: Breast cancer panel proliferation inhibition, MDA-MB-468
- Assay type: cell-based
- Cond: Homo sapiens, 288 h; MDA-MB-468, 12 days; read-out: IC50 (μM) 12 days
Reported Endpoint: IC50 (µM)

CC(=O)N1CCC(Nc2ccc3c(c2)C(=O)N(C[C@H](O)CN2CCc4ccccc4C2)CC3)CC1 [Compound 24a]
0.0041

(P) CC(=O)N1CCC(Nc2ccc3c(c2)C(=O)N(C[C@H](O)CN2CCc4ccccc4C2)CCO3)CC1 [Compound 52a]
(Q) CC(=O)N1CCC(Nc2cc(C(=O)NC[C@H](O)CN3CCc4ccccc4C3)ncn2)CC1 [Compound C3, reference compound]
Task item: Lower value of IC50 belongs to which: P or Q ? Your answer should be the label of the entry you select.
Reply: P

---

- Procedure Text: Pharmacokinetic study in rat
- Assay type: in vivo, Male SD rats
- Cond: male, SD, plasma, 2 mg/kg; Rat PK (IV) 2 mpk; read-out: Vss
- Experimental: Male SD rats (185-265 g; purchased from Shanghai SLAC laboratory animal CO. LTD; n=18, with 3 per compound) were treated with a single dose of compounds being tested at 2 mg/kg by intravenous tail-vein injection and 10 mg/kg by oral gavage administration, with both doses formulated in 5% DMSO+45% PEG400 in water. […] The animal is restrained manually. […] Compound concentrations were determined with UPLC-MS/MS-22 (Triple Quad™ 6500).
Reported Endpoint: Vd (L/kg)

CC(=O)N1CCC(Nc2ccc3c(c2)C(=O)N(C[C@H](O)CN2CCc4ccccc4C2)CC3)CC1 [Compound 24a]
7.15

(1) CC(=O)N1CCC(Nc2ccc3c(c2)C(=O)N(C[C@H](O)CN2CCc4ccccc4C2)CCO3)CC1 [Compound 52a]
(2) CC(=O)N1CCC(Nc2cc(C(=O)NC[C@H](O)CN3CCc4ccccc4C3)ncn2)CC1 [Compound C3, reference compound]
Task item: I need your help: which of the pair 1 , 2 has higher Vd? // respond with label for picked entry
Reply: 1
(1: 5.02 L/kg, 2: 2.17 L/kg)

---

- Test system: Pancreatic Carcinoma MIA PaCa-2 cell
- Procedure Text: Cell proliferation inhibition, MIA PaCa-2 (CellTiter-Glo)
- Type: cell-based
- Cond: Homo sapiens, MIA PaCa-2, incubated for 12 days (read after 8 or 12 days), read-out: IC50 (μM) MIA PaCa2
Reported Endpoint: IC50 (µM)

(A) O=C(NC[C@@H](O)CN1CCc2ccccc2C1)c1cc(NC2COC2)ncn1 [Compound C2, reference compound]
(B) CC(=O)N1CCC(Nc2cc(C(=O)NC[C@H](O)CN3CCc4ccccc4C3)ncn2)CC1 [Compound C3, reference compound]
(C) CC(=O)N1CCC(Nc2ccc3c(c2)C(=O)N(C[C@@H](O)CN2CCc4ccccc4C2)CCO3)CC1 [Compound 52b]
Task item: Rank descending by IC50. Order the labels as requested and list them.
Reply: A, C, B

---

- Test system: Pancreatic Carcinoma MIA PaCa-2 cell
- Procedure Text: Cell proliferation inhibition, MIA PaCa-2 (CellTiter-Glo)
- Type: cell-based
- Cond: Homo sapiens, MIA PaCa-2, incubated for 12 days (read after 8 or 12 days), read-out: IC50 (μM) MIA PaCa2
Reported Endpoint: IC50 (µM)

Some entries whose results are on file:
O=C1c2cc(Nc3ccnnc3)ccc2OCCN1C[C@H](O)CN1CCc2ccccc2C1 [Compound 30a]
0.23
O=C(NC[C@H](O)CN1CCc2ccccc2C1)c1cc(NC2COC2)ncn1 [Compound C1, reference compound]
2
Cn1cc(Nc2ccc3c(c2)C(=O)N(C[C@H](O)CN2CCc4ccccc4C2)CCO3)cn1 [Compound 29a]
0.4
CC(=O)N1CCC(Nc2ccc3c(c2)C(=O)N(C[C@H](O)CN2CCc4ccccc4C2)CCO3)CC1 [Compound 52a]
0.114
Cn1cc(Nc2ccc3c(c2)C(=O)N(C[C@H](O)CN2CCc4ccccc4C2)CC3)cn1 [Compound 12a]
0.66
CC(=O)N1CCC(Nc2ccc3c(c2)C(=O)N(C[C@H](O)CN2CCc4ccccc4C2)CC3)CC1 [Compound 24a]
0.13

(1) O=C1c2cc(Nc3ccnnc3)ccc2CCN1C[C@H](O)CN1CCc2ccccc2C1 [Compound 28a]
(2) CC(=O)N1CCC(Nc2cc(F)c3c(c2)C(=O)N(C[C@H](O)CN2CCc4ccccc4C2)CCO3)CC1
Task item: Lower value of IC50 belongs to which: 1 or 2 ? Please indicate the selected item by its label.
Reply: 2
(2: 0.024 µM, 1: 0.68 µM)

---

- Procedure Text: Pharmacokinetic study in mouse
- Type: in vivo, Male CD-1 mice
- Cond: male, CD-1, plasma, 2 mg/kg; Mouse PK (IV) 2 mpk; read-out: Vss
Reported Endpoint: Vd (L/kg)

CC(=O)N1CCC(Nc2ccc3c(c2)C(=O)N(C[C@H](O)CN2CCc4ccccc4C2)CCO3)CC1 [Compound 52a]
2.25

(P) CC(=O)N1CCC(Nc2ccc3c(c2)C(=O)N(C[C@H](O)CN2CCc4ccccc4C2)CC3)CC1 [Compound 24a]
(Q) CC(=O)N1CCC(Nc2cc(C(=O)NC[C@H](O)CN3CCc4ccccc4C3)ncn2)CC1 [Compound C3, reference compound]
Task item: Which item exceeds the other in Vd, P or Q ? Please identify the chosen entry by its label.
Reply: P
